assay_summary: Half life in Sprague-Dawley rat at 5 mg/kg, po or 1 mg/kg, iv
Format: ADME, organism-based
setup_conditions: in vivo
measure_name: half-life (h)

Take a look at these entries with their results.
CCOC(=O)N[C@@H]1CC[C@@H]2[C@@H](C1)C[C@H]1C(=O)O[C@H](C)[C@H]1[C@H]2/C=C/c1ccc(-c2cccc(F)c2)cn1	4
C[C@H]1OC(=O)[C@@H]2C[C@@H]3C[C@H](NCC#N)CC[C@H]3[C@H](/C=C/c3ccc(-c4cccc(F)c4)cn3)[C@H]12	6.4
Cc1ccnc(N[C@@H]2CC[C@@H]3[C@@H](C2)C[C@H]2C(=O)O[C@H](C)[C@H]2[C@H]3/C=C/c2ccc(-c3cccc(F)c3)cn2)n1	6.7

A. C[C@H]1OC(=O)[C@]2(NCC#N)C[C@@H]3CCCC[C@H]3[C@H](/C=C/c3ccc(-c4cccc(F)c4)cn3)[C@H]12
B. CCOC(=O)N[C@@H]1CC[C@@H]2[C@@H](C1)C[C@H]1C(=O)O[C@H](C)[C@H]1[C@H]2/C=C/c1ccc(-c2ccccn2)cc1
C. C[C@H]1OC(=O)[C@]2(NCC(=O)O)C[C@@H]3CCCC[C@H]3[C@H](/C=C/c3ccc(-c4cccc(F)c4)cn3)[C@H]12
Please list these compounds in decreasing order of half-life. Note for the reader: the ranking is given by listing the labels in the order requested.
A, B, C

====

target: Proteinase-activated receptor 1 (Homo sapiens)
Sequence (whole entry): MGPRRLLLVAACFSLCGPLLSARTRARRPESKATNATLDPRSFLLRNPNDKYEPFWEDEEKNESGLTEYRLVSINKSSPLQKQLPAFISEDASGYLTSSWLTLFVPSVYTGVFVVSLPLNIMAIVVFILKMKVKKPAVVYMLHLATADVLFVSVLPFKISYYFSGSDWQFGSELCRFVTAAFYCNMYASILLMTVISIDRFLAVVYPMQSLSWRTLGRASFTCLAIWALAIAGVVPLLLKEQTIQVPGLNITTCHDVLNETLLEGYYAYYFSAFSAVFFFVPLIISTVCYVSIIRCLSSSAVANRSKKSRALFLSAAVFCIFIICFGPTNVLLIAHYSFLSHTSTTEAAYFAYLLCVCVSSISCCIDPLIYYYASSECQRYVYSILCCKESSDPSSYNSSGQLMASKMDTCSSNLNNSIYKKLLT
assay_summary: Antagonist activity at human PAR1 expressed in KNRK cells assessed as inhibition of agonist-induced intracellular calcium mobilization at 10^-6 M by fluorimetric assay relative to control
Type: functional, cell-based
measure_name: inhibition (%)

C[C@H]1OC(=O)[C@@H]2C[C@@H]3C[C@H](NCC#N)CC[C@H]3[C@H](/C=C/c3ccc(-c4cccc(F)c4)cn3)[C@H]12	71
CCOC(=O)N[C@@H]1CC[C@@H]2[C@@H](C1)C[C@H]1C(=O)O[C@H](C)[C@H]1[C@H]2/C=C/c1ccc(-c2cccc(F)c2)cc1	26
C[C@H]1OC(=O)[C@@H]2C[C@@H]3C[C@H](NCC(=O)O)CC[C@H]3[C@H](/C=C/c3ccc(-c4cccc(F)c4)cn3)[C@H]12	34

P. C[C@H]1OC(=O)[C@@H]2C[C@@H]3C[C@H](Nc4nc5ccccc5o4)CC[C@H]3[C@H](/C=C/c3ccc(-c4cccc(F)c4)cn3)[C@H]12
Q. C[C@H]1OC(=O)[C@]2(NCC(=O)O)C[C@@H]3CCCC[C@H]3[C@H](/C=C/c3ccc(-c4cccc(F)c4)cn3)[C@H]12
R. CCOC(=O)N[C@@H]1CC[C@@H]2[C@@H](C1)C[C@H]1C(=O)O[C@H](C)[C@H]1[C@H]2/C=C/c1ccc(-c2ccccn2)cc1
List by increasing inhibition. Note for the reader: the ranking is given by listing the labels in the order requested.
P, R, Q
(P: 28%, R: 40%, Q: 61%)

Attribution: ChEMBL document CHEMBL4627316
